Source of measurements: ChEMBL document CHEMBL1127535

Biological target: Sigma non-opioid intracellular receptor 1 (Rattus norvegicus)
Assay: Displacement of (+)-3PPP from sigma receptor of rat brain membrane

[
  {
    "smiles-data": "CC(C)N1CCC[C@@H](c2cccc(O)c2)C1",
    "units-label": "µM",
    "Log IC50": 0.68
  },
  {
    "smiles-data": "CCCCN1CCC[C@H](c2cccc(O)c2)C1",
    "units-label": "µM",
    "Log IC50": 2.05
  },
  {
    "smiles-data": "CC(C)N1CCC[C@H](c2cccc(O)c2)C1",
    "units-label": "µM",
    "Log IC50": 0.61
  },
  {
    "smiles-data": "Oc1cccc([C@H]2CCCNC2)c1",
    "units-label": "µM",
    "Log IC50": 0.66
  }
]

----------
Target: Sigma non-opioid intracellular receptor 1 (Rattus norvegicus) (UniProt Q9R0C9)
Sequence (Q9R0C9 whole entry): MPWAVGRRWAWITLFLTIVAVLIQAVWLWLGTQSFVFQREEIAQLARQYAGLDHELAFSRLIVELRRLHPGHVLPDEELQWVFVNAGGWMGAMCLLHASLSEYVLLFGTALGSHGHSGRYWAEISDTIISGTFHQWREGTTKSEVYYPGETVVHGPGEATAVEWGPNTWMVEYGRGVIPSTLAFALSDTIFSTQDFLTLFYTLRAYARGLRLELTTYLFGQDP
Experiment: Displacement of (+)-3PPP from sigma receptor of rat brain membrane
# key: entry, value: Log IC50

[
  {
    "smiles-data": "CCc1ccc(N2CCC[C@@H](c3cccc(O)c3)C2)cc1",
    "units-label": "µM",
    "Log IC50": 1.8
  },
  {
    "smiles-data": "CCc1ccc(N2CCC[C@H](c3cccc(O)c3)C2)cc1",
    "units-label": "µM",
    "Log IC50": 2.1
  },
  {
    "smiles-data": "CCCCN1CCC[C@@H](c2cccc(O)c2)C1",
    "units-label": "µM",
    "Log IC50": 1.51
  },
  {
    "smiles-data": "CCCN1CCC[C@@H](c2cccc(O)c2)C1",
    "units-label": "µM",
    "Log IC50": 0.81
  },
  {
    "smiles-data": "CN1CCC[C@H](c2cccc(O)c2)C1",
    "units-label": "µM",
    "Log IC50": 0.43
  },
  {
    "smiles-data": "CCCN1CCC[C@H](c2cccc(O)c2)C1",
    "units-label": "µM",
    "Log IC50": 1.52
  },
  {
    "smiles-data": "Oc1cccc([C@@H]2CCCNC2)c1",
    "units-label": "µM",
    "Log IC50": 1.19
  }
]

----------
Molecular target: D(2) dopamine receptor (Rattus norvegicus) (UniProt P61169)
Sequence (P61169 whole entry): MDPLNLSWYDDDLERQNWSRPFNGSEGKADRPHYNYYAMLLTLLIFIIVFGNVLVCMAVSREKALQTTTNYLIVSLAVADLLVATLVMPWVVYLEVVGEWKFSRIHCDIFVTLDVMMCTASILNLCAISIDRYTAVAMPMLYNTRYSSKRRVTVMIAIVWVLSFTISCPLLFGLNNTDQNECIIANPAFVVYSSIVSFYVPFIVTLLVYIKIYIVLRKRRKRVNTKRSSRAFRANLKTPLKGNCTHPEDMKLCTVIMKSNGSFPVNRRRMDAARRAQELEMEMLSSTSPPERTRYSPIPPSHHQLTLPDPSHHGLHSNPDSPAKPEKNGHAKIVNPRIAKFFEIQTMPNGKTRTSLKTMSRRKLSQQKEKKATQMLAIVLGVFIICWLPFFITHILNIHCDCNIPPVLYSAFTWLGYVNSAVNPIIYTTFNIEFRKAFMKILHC
Assay: Displacement of spiperone from dopamine receptor D2 of rat brain membrane
# key: entry, value: Log IC50

[
  {
    "smiles-data": "CN1CCC[C@H](c2cccc(O)c2)C1",
    "study-system": "D(2) dopamine receptor (Rattus norvegicus) (UniProt P61169)",
    "units-label": "µM",
    "Log IC50": 0.61
  },
  {
    "smiles-data": "CC(C)N1CCC[C@H](c2cccc(O)c2)C1",
    "study-system": "D(2) dopamine receptor (Rattus norvegicus) (UniProt P61169)",
    "units-label": "µM",
    "Log IC50": 1.08
  },
  {
    "smiles-data": "CCCCN1CCC[C@H](c2cccc(O)c2)C1",
    "study-system": "D(2) dopamine receptor (Rattus norvegicus) (UniProt P61169)",
    "units-label": "µM",
    "Log IC50": 0.43
  },
  {
    "smiles-data": "CCc1ccc(N2CCC[C@@H](c3cccc(O)c3)C2)cc1",
    "study-system": "D(2) dopamine receptor (Rattus norvegicus) (UniProt P61169)",
    "units-label": "µM",
    "Log IC50": 1.36
  },
  {
    "smiles-data": "CC(C)N1CCC[C@@H](c2cccc(O)c2)C1",
    "study-system": "D(2) dopamine receptor (Rattus norvegicus) (UniProt P61169)",
    "units-label": "µM",
    "Log IC50": 0.45
  },
  {
    "smiles-data": "Oc1cccc([C@@H]2CCCNC2)c1",
    "study-system": "D(2) dopamine receptor (Rattus norvegicus) (UniProt P61169)",
    "units-label": "µM",
    "Log IC50": 0.24
  },
  {
    "smiles-data": "CCCCN1CCC[C@@H](c2cccc(O)c2)C1",
    "study-system": "D(2) dopamine receptor (Rattus norvegicus) (UniProt P61169)",
    "units-label": "µM",
    "Log IC50": 0.56
  },
  {
    "smiles-data": "Oc1cccc([C@H]2CCCNC2)c1",
    "study-system": "D(2) dopamine receptor (Rattus norvegicus) (UniProt P61169)",
    "units-label": "µM",
    "Log IC50": 0.36
  },
  {
    "smiles-data": "CCc1ccc(N2CCC[C@H](c3cccc(O)c3)C2)cc1",
    "study-system": "D(2) dopamine receptor (Rattus norvegicus) (UniProt P61169)",
    "units-label": "µM",
    "Log IC50": 0.09
  }
]
